Species on record: Rattus norvegicus
Assay type: toxicity, organism-based, Sprague-Dawley
run_conditions: in vivo, po, 2 mg/kg, 24 h, tissue Blood, route oral GAVAGE, dose level High, time 1 day, vehicle 100 % SALINE
Description: DrugMatrix - Regimen: Single
readout_kind: ABSOLUTE BASOPHIL
State the value, then name its unit.

Request: Annotate the compound `COc1cccc2c1C(=O)c1c(O)c3c(c(O)c1C2=O)C[C@@](O)(C(C)=O)C[C@@H]3O[C@H]1C[C@H](N)[C@H](O)[C@H](C)O1` with its measured ABSOLUTE BASOPHIL.
Response: 30 cells/µL

----------
Organism: Rattus norvegicus
method_notes: DrugMatrix - Regimen: Daily Repeat
Assay type: toxicity, organism-based, Sprague-Dawley
Parameters: regimen Daily Repeat, gender Male, age 6-8 weeks
run_conditions: in vivo, po, 0 mg/kg, 120 h, tissue Plasma, route oral GAVAGE, dose level Control, time 5 day, vehicle 100 % WATER
List of TOTAL BILIRUBIN values.
Response body: numeric value in mg/dL, unit text excluded.

# compound, TOTAL BILIRUBIN / mg/dL
rows = [
    ("CCN(C(C)=O)c1cccc(-c2ccnc3c(C#N)cnn23)c1", 0.23),
    ("NC(=O)c1cccnc1 [NIACINAMIDE]", 0.2),
    ("CN(C)C(=O)Oc1cccc([N+](C)(C)C)c1.[Br-] [NEOSTIGMINE BROMIDE]", 0.13),
]

Request: Assign TOTAL BILIRUBIN to the following record: `C#Cc1cccc(Nc2ncnc3cc(OCCOC)c(OCCOC)cc23)c1`
Response: 0.55

Request: Entry `CCN(CC)CCOC(=O)C1(C2CCCCC2)CCCCC1` needs its TOTAL BILIRUBIN filled in; supply it.
Response: 0.72

Request: Given the compound O=c1[nH]c(=O)n(C2CCCO2)cc1F (stereo unspecified) , write its reported TOTAL BILIRUBIN.
Response: 0.22

// provenance: ChEMBL document CHEMBL3885881
